Source: patent US20260242478A1

biological target: T1, Anti-CD28 Fab (SEQ ID NOs: 696, 697); experiment: phage binding ELISA on anti-CD28 Fab plate pre-incubated with CD28 antigen as competitor; anti-M13 HRP detection
T1 construct: Biotinylated and captured on neutravidin coated plates in the phage ELISA
T1 sequence (VH, as listed by the source, chain 1 of 2): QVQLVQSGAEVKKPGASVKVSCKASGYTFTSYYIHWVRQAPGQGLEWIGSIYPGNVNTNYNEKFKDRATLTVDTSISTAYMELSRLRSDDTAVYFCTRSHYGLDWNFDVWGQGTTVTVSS
T1 sequence (VL, as listed by the source, chain 2 of 2): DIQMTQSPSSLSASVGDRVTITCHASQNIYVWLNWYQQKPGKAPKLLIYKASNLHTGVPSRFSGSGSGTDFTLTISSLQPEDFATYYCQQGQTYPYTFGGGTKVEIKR
Anti-CD28 Fab signal in the presence of CD28 (phage binding ELISA) for assorted binders
// no unit, no text: just the number

[[record]]
binder = "YCEGHSMQHMAKCL (peptide, not shown: large carriers, Clonal phage supernatant of the Peptide-87 library) [Phage-667]"
observed_measurement = 0.08

[[record]]
binder = "YCAGHLPEYIDKCL (peptide, not shown: large carriers, Clonal phage supernatant of the Peptide-87 library) [Phage-669]"
observed_measurement = 0.08

[[record]]
binder = "YCSGHLPEYMEKCL (peptide, not shown: large carriers, Clonal phage supernatant of the Peptide-87 library) [Phage-660]"
observed_measurement = 0.09

[[record]]
binder = "YCEGHTAEYLQKCL (peptide, not shown: large carriers, Clonal phage supernatant of the Peptide-87 library) [Phage-658]"
observed_measurement = 0.1


As a next step, examine the binder that follows.
Could you tell me which Anti-CD28 Fab signal in the presence of CD28 (phage binding ELISA) is on file for YCDGHAEQYMEKCL (peptide, not shown: large carriers, Clonal phage supernatant of the Peptide-87 library) [Phage-665] ?
0.07
